Tested on: B. subtilis
Assay: MIC on (nutrient) agar
Assay type: cell-based
Details: Bacillus subtilis; B. subtilis, agar; read-out: minimum inhibitory concentration (MIC)
Where a name gives a salt, the structure may show the parent alone.
Here the recorded MIC is given for each entry.

{"Molecule": "N[C@@H](C(=O)N[C@@H]1C(=O)N2C(C(=O)O)=C(Cc3cccnc3)CS[C@H]12)c1ccc(O)cc1 [Example 13, bis-trifluoroacetic acid salt]", "Tested on": "B. subtilis", "Inequality operator": "=", "MIC [mg/L]": 0.25}
{"Molecule": "C[n+]1cccc(CC2=C(C(=O)O)N3C(=O)[C@@H](NC(=O)[C@H](O)c4ccccc4)[C@H]3SC2)c1", "Tested on": "B. subtilis", "Inequality operator": "=", "MIC [mg/L]": 0.25}
{"Molecule": "O=C(CSc1ccncc1)N[C@@H]1C(=O)N2C(C(=O)O)=C(Cc3cccnc3)CS[C@H]12 [Example 16, di-trifluoroacetic acid salt]", "Tested on": "B. subtilis", "Inequality operator": "<", "MIC [mg/L]": 0.02}

====

Tested on: B. subtilis
Test: MIC on (nutrient) agar
Assay type: cell-based
Conditions: Bacillus subtilis; B. subtilis, agar; read-out: minimum inhibitory concentration (MIC)
Structures can show the parent of a compound that is named as a salt.
Metric: MIC

{"Compound": "O=C(Cc1cccs1)N[C@@H]1C(=O)N2C(C(=O)O)=C(Cc3cccnc3)CS[C@H]12 [Example 1, trifluoroacetate salt]", "Tested on": "B. subtilis", "Observed measurement": "0.25 µg/mL"}
{"Compound": "N[C@@H](C(=O)N[C@@H]1C(=O)N2C(C(=O)O)=C(Cc3ccccn3)CS[C@H]12)c1ccccc1", "Tested on": "B. subtilis", "Observed measurement": "1.25 µg/mL"}
{"Compound": "CN(C(=O)C=Cc1ccccc1)C(=O)N[C@@H](C(=O)N[C@@H]1C(=O)N2C(C(=O)O)=C(Cc3cccnc3)CS[C@H]12)c1ccccc1", "Tested on": "B. subtilis", "Observed measurement": "32 µg/mL"}
{"Compound": "N[C@@H](C(=O)N[C@@H]1C(=O)N2C(C(=O)O)=C(Cc3cccnc3)CS[C@H]12)c1ccccc1 [Example 4, di-trifluoroacetate salt]", "Tested on": "B. subtilis", "Observed measurement": "0.25 µg/mL"}
{"Compound": "NC(C(=O)N[C@@H]1C(=O)N2C(C(=O)O)=C(Cc3cccnc3)CS[C@H]12)c1cccs1 (stereo partly drawn) [Example 15, Di-trifluoroacetic acid salt]", "Tested on": "B. subtilis", "Observed measurement": "1.25 µg/mL"}
{"Compound": "N=C(N)N[C@@H](C(=O)N[C@@H]1C(=O)N2C(C(=O)O)=C(Cc3cccnc3)CS[C@H]12)c1ccccc1 [Example 11, di-trifluoroacetic acid salt]", "Tested on": "B. subtilis", "Observed measurement": "2.5 µg/mL"}

====

System: Klebsiella aerogenes A
Assay: MIC on nutrient agar
Format: cell-based
Settings: Klebsiella aerogenes A, nutrient agar; read-out: minimum inhibitory concentration (MIC)
Counter-ions that a name gives are not always drawn.
Here the recorded log10 of MIC is given for each entry.
Metric: log10 of MIC (log10 of the value in µg/mL)

{"Compound": "O=C(Cc1ccncc1)N[C@@H]1C(=O)N2C(C(=O)O)=C(Cc3cccnc3)CS[C@H]12 [Example 17, di-trifluoroacetic acid salt]", "Tested on": "Klebsiella aerogenes A", "Observed measurement": 1.00}
{"Compound": "O=C(O)CSCC(=O)N[C@@H]1C(=O)N2C(C(=O)O)=C(Cc3cccnc3)CS[C@H]12 [Example 14, trifluoroacetic acid salt]", "Tested on": "Klebsiella aerogenes A", "Observed measurement": 1.40}
{"Compound": "O=C(O)C1=C(Cc2cccnc2)CS[C@@H]2[C@H](NC(=O)[C@H](NC(=O)N3CCNC3=O)c3ccccc3)C(=O)N12 [Example 8, trifluoroacetic acid salt]", "Tested on": "Klebsiella aerogenes A", "Observed measurement": 1.10}
{"Compound": "N[C@@H](C(=O)N[C@@H]1C(=O)N2C(C(=O)O)=C(Cc3cccnc3)CS[C@H]12)c1ccccc1 [Example 4, di-trifluoroacetate salt]", "Tested on": "Klebsiella aerogenes A", "Observed measurement": 0.40}
{"Compound": "C[n+]1cccc(CC2=C(C(=O)O)N3C(=O)[C@@H](NC(=O)[C@H](N)c4ccccc4)[C@H]3SC2)c1 [Example 12, trifluoroacetic acid salt]", "Tested on": "Klebsiella aerogenes A", "Observed measurement": 1.70}
{"Compound": "NC(C(=O)N[C@@H]1C(=O)N2C(C(=O)O)=C(Cc3cccnc3)CS[C@H]12)C1CC1 (mixture of isomers) [Example 19, di-trifluoroacetic acid salt]", "Tested on": "Klebsiella aerogenes A", "Observed measurement": 2.40}
{"Compound": "CCSCC(=O)N[C@@H]1C(=O)N2C(C(=O)O)=C(Cc3cccnc3)CS[C@H]12 [Example 10, trifluoroacetic acid salt]", "Tested on": "Klebsiella aerogenes A", "Observed measurement": 1.70}
{"Compound": "O=C(O)C1=C(Cc2cccnc2)CS[C@@H]2[C@H](NC(=O)[C@H](O)c3ccccc3)C(=O)N12 [Example 3, trifluoroacetate salt]", "Tested on": "Klebsiella aerogenes A", "Observed measurement": 0.40}
{"Compound": "C[n+]1cccc(CC2=C(C(=O)O)N3C(=O)[C@@H](NC(=O)[C@H](O)c4ccccc4)[C@H]3SC2)c1 [Example 5]", "Tested on": "Klebsiella aerogenes A", "Observed measurement": 1.70}
{"Compound": "O=C(CSc1ccncc1)N[C@@H]1C(=O)N2C(C(=O)O)=C(Cc3cccnc3)CS[C@H]12 [Example 16, di-trifluoroacetic acid salt]", "Tested on": "Klebsiella aerogenes A", "Observed measurement": 0.70}
{"Compound": "NC(C(=O)N[C@@H]1C(=O)N2C(C(=O)O)=C(Cc3cccnc3)CS[C@H]12)c1cccs1 (some centres unmarked) [Example 15, Di-trifluoroacetic acid salt]", "Tested on": "Klebsiella aerogenes A", "Observed measurement": 0.70}
{"Compound": "O=C(COc1ccccc1)N[C@@H]1C(=O)N2C(C(=O)O)=C(Cc3cccnc3)CS[C@H]12 [Example 9, trifluoroacetic acid salt]", "Tested on": "Klebsiella aerogenes A", "Observed measurement": 2.70}
{"Compound": "CN(C(=O)C=Cc1ccccc1)C(=O)N[C@@H](C(=O)N[C@@H]1C(=O)N2C(C(=O)O)=C(Cc3cccnc3)CS[C@H]12)c1ccccc1 [Example 20]", "Tested on": "Klebsiella aerogenes A", "Observed measurement": 1.80}
